Origin of the recorded values: patent US20250051344A1

target: SMARCA2 (Homo sapiens, UniProt P51531); construct: endogenous in cells; test: SMARCA2 Cellular Degradation Assay (Western blot analysis on Jess platform); assay type: cell-based; conditions: cellular degradation
Sequence (P51531 whole entry, species assumed): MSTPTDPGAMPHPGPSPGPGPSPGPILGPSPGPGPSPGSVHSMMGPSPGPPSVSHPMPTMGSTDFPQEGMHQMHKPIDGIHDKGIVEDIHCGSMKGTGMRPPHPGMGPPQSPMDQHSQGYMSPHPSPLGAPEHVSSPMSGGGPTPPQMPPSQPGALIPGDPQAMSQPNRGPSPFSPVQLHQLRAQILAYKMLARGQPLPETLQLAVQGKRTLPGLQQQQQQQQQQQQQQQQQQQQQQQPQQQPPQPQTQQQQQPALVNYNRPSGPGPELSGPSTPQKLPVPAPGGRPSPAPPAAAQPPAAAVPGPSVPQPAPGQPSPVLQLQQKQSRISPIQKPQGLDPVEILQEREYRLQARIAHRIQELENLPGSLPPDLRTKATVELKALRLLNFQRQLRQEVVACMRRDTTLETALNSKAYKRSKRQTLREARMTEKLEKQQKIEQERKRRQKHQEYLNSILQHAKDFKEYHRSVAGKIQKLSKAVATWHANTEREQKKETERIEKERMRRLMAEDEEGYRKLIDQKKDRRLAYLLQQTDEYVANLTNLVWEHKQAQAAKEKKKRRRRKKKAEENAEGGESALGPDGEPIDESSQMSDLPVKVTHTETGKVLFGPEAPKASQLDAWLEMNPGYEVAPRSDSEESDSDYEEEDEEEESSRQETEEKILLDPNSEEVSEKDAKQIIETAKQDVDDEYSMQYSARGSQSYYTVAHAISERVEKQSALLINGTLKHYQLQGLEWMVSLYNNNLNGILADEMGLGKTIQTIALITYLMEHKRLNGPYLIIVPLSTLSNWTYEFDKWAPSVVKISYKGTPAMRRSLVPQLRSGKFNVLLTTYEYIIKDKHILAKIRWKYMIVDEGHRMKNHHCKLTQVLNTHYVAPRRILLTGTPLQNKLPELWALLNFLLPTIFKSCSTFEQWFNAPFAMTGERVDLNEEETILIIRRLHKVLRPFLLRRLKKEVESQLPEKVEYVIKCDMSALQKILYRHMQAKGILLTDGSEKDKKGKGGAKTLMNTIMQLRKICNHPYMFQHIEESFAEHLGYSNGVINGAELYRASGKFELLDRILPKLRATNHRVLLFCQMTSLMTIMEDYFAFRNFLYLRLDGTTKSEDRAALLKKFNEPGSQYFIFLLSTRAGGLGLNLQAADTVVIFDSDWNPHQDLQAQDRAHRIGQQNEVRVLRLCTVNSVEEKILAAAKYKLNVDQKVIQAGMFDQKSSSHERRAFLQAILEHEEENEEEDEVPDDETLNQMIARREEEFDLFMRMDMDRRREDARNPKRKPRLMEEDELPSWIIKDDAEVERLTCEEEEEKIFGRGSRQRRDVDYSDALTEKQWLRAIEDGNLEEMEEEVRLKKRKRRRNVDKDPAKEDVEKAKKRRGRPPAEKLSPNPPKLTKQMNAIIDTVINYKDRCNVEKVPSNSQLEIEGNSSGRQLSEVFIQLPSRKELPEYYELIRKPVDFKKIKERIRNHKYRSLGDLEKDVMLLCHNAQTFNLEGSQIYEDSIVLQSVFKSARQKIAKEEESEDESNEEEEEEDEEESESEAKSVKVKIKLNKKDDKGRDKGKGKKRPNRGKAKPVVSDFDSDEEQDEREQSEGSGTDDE
experimental_endpoint: DC50 (nM)

CN(C(=O)C1(OC2CCCCC2)CCN(c2cnnc(-c3ccccc3O)c2)CC1)C1CCN(C(=O)CN2CCC(c3ccc([C@@H]4CCC(=O)NC4=O)cc3)CC2)CC1 (racemic) [Example 117]; 16.7
O=C1CCC(c2ccc(N3CCC(F)(CCN4CC5(C4)CN(C(=O)C4(c6ccccc6)CCN(c6cnnc(-c7ccccc7O)c6)CC4)C5)CC3)cc2)C(=O)N1 (racemic) [Example 122]; 9.13
Cn1ccc(OC2(C(=O)N3CC4(CN(CCC5CCN(c6ccc(C7CCC(=O)NC7=O)c(F)c6)CC5)C4)C3)CCN(c3cnnc(-c4ccccc4O)c3)CC2)n1 (racemic) [Example 66]; 10.6
O=C1CC[C@H](c2ccc(N3CCC(CN4CCC(NC(=O)C5(c6ccccc6)CCN(c6cnnc(-c7ccccc7O)c6)CC5)CC45CCC5)CC3)cc2)C(=O)N1 (some centres unmarked) [Example 39]; 3.09
O=C1CC[C@H](c2ccc(N3CCC(CN4CC5(CCN(C(=O)C6(c7ccccc7)CCN(c7cnnc(-c8ccccc8O)c7)CC6)C5)C4)CC3)cc2)C(=O)N1 [Example 16]; 7.48
COc1cccc(C2(C(=O)N(C)C3CCN(CCC4CCN(c5ccc([C@H]6CCC(=O)NC6=O)cc5)CC4)CC3)CCN(c3cnnc(-c4ccccc4O)c3)CC2)c1 [Example 139]; 4.55
O=C1CC[C@H](c2ccc(N3CCC(CCN4CCC(OCC(F)(F)F)(C(=O)NCC5(c6ccccc6)CCN(c6cnnc(-c7ccccc7O)c6)CC5)CC4)CC3)cc2)C(=O)N1 (racemic) [Example 105]; 4.98
Cn1nc(N2CCC(=O)NC2=O)c2cccc(N3CCC(CN4CC5(C4)CN(C(=O)C4(c6ccccc6)CCN(c6cnnc(-c7ccccc7O)c6)CC4)C5)CC3)c21 [Example 123]; 68.1

[A] CN(C(=O)C1(c2ccccc2)CCN(c2cnnc(-c3ccccc3O)c2)CC1)C1CCN(CCC2CCN(c3ccc([C@H]4CCC(=O)NC4=O)cc3)CC2)CC1 [Example 192]
[B] C[C@@H](C1CCN(c2ccc([C@H]3CCC(=O)NC3=O)cn2)CC1)N1CC2(CN(C(=O)C3(c4ccccc4)CCN(c4cnnc(-c5ccccc5O)c4)CC3)C2)C1 (racemic) [Example 141]
Lookup: Quick one: lower DC50, A or B ? Please reply using the label of the selected record.
Found: A
(A: 4.58 nM, B: 6.59 nM)

----------
target: SMARCA2 (Homo sapiens, UniProt P51531); construct: endogenous in cells; assay: SMARCA2 Cellular Degradation Assay (Western blot analysis on Jess platform); assay type: cell-based; conditions: cellular degradation
experimental_endpoint: Dmax (%)

O=C1CC[C@H](c2ccc(N3CCC(CN4CCCC5C4CCCN5C(=O)C4(c5ccccc5)CCN(c5cnnc(-c6ccccc6O)c5)CC4)CC3)cc2)C(=O)N1 (some centres unmarked); 36.8
C[C@H](Oc1ccc(C2CCC(=O)NC2=O)cc1)C1CCN(C(=O)C2(c3ccccc3)CCN(c3cnnc(-c4ccccc4O)c3)CC2)CC1 (mixture of isomers); 53.5
CC1CC2CN(CC3CCN(c4ccc([C@H]5CCC(=O)NC5=O)cc4)CC3)CC2N1C(=O)C1(c2ccccc2)CCN(c2cnnc(-c3ccccc3O)c2)CC1 (some centres unmarked); 53.4
O=C1CCC(c2c(F)cc(N3CCC(CN4CCC5(CC4)CN(C(=O)C4(Oc6ccccc6)CCN(c6cnnc(-c7ccccc7O)c6)CC4)C5)CC3)cc2F)C(=O)N1 (racemic); 94

[I] COc1ccccc1C1(C(=O)N(C)C2CCN(CCC3CCN(c4ccc([C@H]5CCC(=O)NC5=O)c(F)c4)CC3)CC2)CCN(c2cnnc(-c3ccccc3O)c2)CC1
[II] O=C1CC[C@H](c2ccc(N3CCC(CN4CCC(C5CCN(C(=O)C6(c7ccccc7)CCN(c7cnnc(-c8ccccc8O)c7)CC6)CC5)C4)CC3)cc2)C(=O)N1 (some centres unmarked)
Lookup: Quick one: lower Dmax, I or II ? Please reply using the label of the selected record.
Found: II
(II: 35.6%, I: 90.9%)
